System: c-Abl (mouse);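 also: 11-residue human phosphosite peptides and single-mutation variants displayed on the E. coli surface, counted by deep sequencing, each peptide's frequency after selection divided by its frequency in the unselected input library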;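 also: frequency after pTyr selection over input frequency; kinase dosed for 20-30% of maximal phosphorylation in three min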
PROTOCOL_DETAILS: phosphorylation enrichment, bacterial display (enrichment ratio); higher = better substrate or ligand; peptides without Tyr show the background
MEASUREMENT_TYPE: phosphorylation enrichment
Give your answer as a number; write no unit.

Example sequences with recorded phosphorylation enrichment:
Name the reported phosphorylation enrichment value associated with the sequence ARKWGYTVKGI [OAT_Y158] 0.724

Another sequence to check: SGTYQYIIAKF [FOXL2_Y83_I80T] 1.17

Another sequence to check: EAVKNYTDKRG [PBRM1_Y672] 0.489

Continuing:
Name the reported phosphorylation enrichment value associated with the sequence YRTPGYREVVI [TNS2_Y673_A670T] 1.23

Another sequence to check: LIFTNYEVGKD [GSTP1_Y112_A114V_YF] 1.3
